System: HL-60(TB) leukemia
METHOD DESCRIPTION: NCI-60 one-dose screen, 48 h
EXPERIMENTAL CONDITIONS: 10 µM unless noted
About 83,000 compounds went through this panel and 20% of them were active in at least one assay; those are over-represented in the sample as a whole. Calls of active or inactive are those of the source. How the source made its calls: active means growth percent below 10; inactive means the rest.
Outcomes: true (active), false (inactive)

- MOLECULE: "CCO/C=N/C1=C(C#N)C(c2ccc(OC)cc2)c2sc3c(F)cccc3c2O1 (stereo not given)"
  ASSIGNED CLASS: "true"
- MOLECULE: "CC(CCC#N)(CCC#N)C(=O)c1ccccc1"
  ASSIGNED CLASS: "false"
- MOLECULE: "ClCC(Cl)[C@@H]1CC2C=CC1C2 (stereo not given in full)"
  ASSIGNED CLASS: "false"
- MOLECULE: "O=C(N/N=C1\\c2ccccc2-c2cccc(C(=O)O)c21)c1ccc(O)cc1"
  ASSIGNED CLASS: "false"
- MOLECULE: "C[C@@H]1[C@H]2[C@H](C=C3[C@@H]4CC[C@H]5Cc6nc7c(nc6C[C@]5(C)[C@H]4C[C@@H](O)[C@@]32C)C[C@@H]2CC[C@H]3C4=C[C@@H]5O[C@@]6(CC[C@](C)(CO)O6)[C@@H](C)[C@@]5(O)[C@@]4(C)[C@H](O)C[C@@H]3[C@@]2(C)C7)O[C@]12CCC(C)(C)O2"
  ASSIGNED CLASS: "true"
- MOLECULE: "Cc1ccc(/C=N/NC(N)=S)s1"
  ASSIGNED CLASS: "false"
- MOLECULE: "Oc1ccc2ccccc2c1N=Nc1nccs1"
  ASSIGNED CLASS: "true"
- MOLECULE: "O=C1/C(=C\\c2cn(-c3ccccc3)nc2-c2ccc(-c3cccs3)cc2)CCc2ccccc21"
  ASSIGNED CLASS: "false"
- MOLECULE: "COc1cc(/C=C/C(=O)c2ccc(Nc3ncnc4cc(OC)c(OC)cc34)cc2)cc(OC)c1"
  ASSIGNED CLASS: "false"
- MOLECULE: "COC(=O)C(Sc1ccc(Cl)cc1)C1SC(=S)N(Cc2ccccc2)C1=O (stereo not given)"
  ASSIGNED CLASS: "false"
- MOLECULE: "O=C(/C=C/c1cccc(Cl)c1)OCc1ccc2cc1OCC#C/C=C\\C#CCO2"
  ASSIGNED CLASS: "false"
- MOLECULE: "NC(=S)c1csc(CCNC(=O)c2ccccc2)n1"
  ASSIGNED CLASS: "false"
- MOLECULE: "C=CCn1c(SCC(=O)Nc2ccc(C(=O)/C=C/c3cc(OC)c(OC)c(OC)c3)cc2)nnc1-c1cc(-c2ccc(S(C)(=O)=O)cc2)nc2ccccc12"
  ASSIGNED CLASS: "false"
- MOLECULE: "N#CC1(Nc2ccc3c4c(cccc24)CC3)CCCCC1"
  ASSIGNED CLASS: "false"
- MOLECULE: "COc1ccc(/C=C\\c2cc(OC)c(OC)c(OC)c2)c(NS(=O)(=O)c2ccc(C(C)(C)C)cc2)c1O"
  ASSIGNED CLASS: "true"
- MOLECULE: "Oc1ccc(Cc2ccccc2Cl)c(O)c1"
  ASSIGNED CLASS: "false"
- MOLECULE: "Nc1n[nH]c(-c2cc(Cl)ccc2O)c1-c1ccccc1"
  ASSIGNED CLASS: "false"
- MOLECULE: "Cc1cc2c(F)c(Oc3ncnc(Nc4ccc(N5C[C@@H](C)N[C@@H](C)C5)cc4)c3C#N)cc(F)c2[nH]1"
  ASSIGNED CLASS: "true"
- MOLECULE: "BrC/C=C/C[P+](c1ccccc1)(c1ccccc1)c1ccccc1"
  ASSIGNED CLASS: "true"
- MOLECULE: "COc1ccc2c(c1)[nH]c(=O)c1c3cc(OC)c(OC)cc3cn21"
  ASSIGNED CLASS: "true"
- MOLECULE: "CC1(C)CC[C@]2(C(N)=O)CC[C@]3(C)C(=CC[C@@H]4[C@@]5(C)C/C(=C/c6cccnc6)C(=O)C(C)(C)[C@@H]5CC[C@]43C)[C@@H]2C1"
  ASSIGNED CLASS: "true"
- MOLECULE: "COc1cc(C2NC(=O)C(C#N)=C(Nc3cccc(C)c3)S2)ccc1O (stereo not given)"
  ASSIGNED CLASS: "false"
- MOLECULE: "CCCCCOC(=O)c1ccc(NC(=O)CNCC(C)C)cc1"
  ASSIGNED CLASS: "false"
- MOLECULE: "CSc1nnc(-c2cc3c([nH]c4ccccc43)c(-c3cccc(O)c3)n2)n1-c1ccccc1"
  ASSIGNED CLASS: "true"
- MOLECULE: "CC(=O)O[C@H]1CC[C@]2(C)C3=C(C(=O)C[C@H]2C1(C)C)[C@]1(C)CC[C@H]([C@H](C)CCC(=O)O)[C@@]1(C)CC3=O"
  ASSIGNED CLASS: "false"
